Origin of the recorded values: the supplement of paper PMC11246515

# assay-explanation: total protein half-life in vivo (active degradation + dilution); higher = more stable protein
# condition-details: E. coli NCM3722 delta-smpB; growth: N-lim chemostat; doubling time 6 h
parameter: total protein half-life in vivo (h)
Your answer should be a plain number; it is taken to be in h.

query-sequence: MPSTPEEKKKVLTRVRRIRGQIDALERSLEGDAECRAILQQIAAVRGAANGLMAEVLESHIRETFDRNDCYSREVSQSVDDTIELVRAYLK [P0AAP3]
total protein half-life in vivo [h]: 3.92

query-sequence: MANPTVIKLQDGNVMPQLGLGVWQASNEEVITAIQKALEVGYRSIDTAAAYKNEEGVGKALKNASVNREELFITTKLWNDDHKRPREALLDSLKKLQLDYIDLYLMHWPVPAIDHYVEAWKGMIELQKEGLIKSIGVCNFQIHHLQRLIDETGVTPVINQIELHPLMQQRQLHAWNATHKIQTESWSPLAQGGKGVFDQKVIRDLADKYGKTPAQIVIRWHLDSGLVVIPKSVTPSRIAENFDVWDFRLDKDELGEIAKLDQGKRLGPDPDQFGG
total protein half-life in vivo [h]: 5.17

For the next question, use this sequence.
QUERY: Recorded total protein half-life in vivo of `MKKVLLIILLLLVVLGIAAGVGVWKVRHLADSKLLIKEETIFTLKPGTGRLALGEQLYADKIINRPRVFQWLLRIEPDLSHFKAGTYRFTPQMTVREMLKLLESGKEAQFPLRLVEGMRLSDYLKQLREAPYIKHTLSDDKYATVAQALELENPEWIEGWFWPDTWMYTANTTDVALLKRAHKKMVKAVDSAWEGRADGLPYKDKNQLVTMASIIEKETAVASERDKVASVFINRLRIGMRLQTDPTVIYGMGERYNGKLSRADLETPTAYNTYTITGLPPGAIATPGADSLKAAAHPAKTPYLYFVADGKGGHTFNTNLASHNKSVQDYLKVLKEKNAQ` , please.
RESULT: 6.22
